Recorded values, source patent US6136808A.

Test: Solubility test in water of taxane derivatives (HPLC)
Conditions: water
OUTCOME MEASURE: solubility (µg/mL)
Write the value in µg/mL as a bare number.

Previously resolved entries follow.
COMPOUND | solubility, µg/mL
CC(=O)O[C@H]1C(=O)[C@@]2(C)[C@H]([C@H](OC(=O)c3ccccc3)[C@]3(O)C[C@H](OC(=O)[C@H](O)[C@@H](NC(=O)c4ccccc4)c4ccccc4)C(C)=C1C3(C)C)[C@]1(OC(C)=O)CO[C@@H]1C[C@@H]2O [Taxol, reference compound] | 0.4
CC(=O)OC12COC1CC(O)C1(C)C(=O)C(OC(=O)N3CCN(C)CC3)C3=C(C)C(OC(=O)C(O)C(NC(=O)c4ccco4)c4ccccc4)CC(O)(C(OC(=O)c4ccccc4)C21)C3(C)C (stereo not drawn) | 2000

Continue with the compound presented below.
Challenge: Name the recorded solubility of the item CCN1CCN(C(=O)OC2C(=O)C3(C)C(O)CC4OCC4(OC(C)=O)C3C(OC(=O)c3ccccc3)C3(O)CC(OC(=O)C(O)C(NC(=O)OC4CCCC4)c4ccccc4)C(C)=C2C3(C)C)CC1 (stereo not drawn) in your answer.
Response given: 1840
